Recorded remaining activity at 10 µM, one value per entry.
target: RNA-dependent DNA polymerase activity of HIV reverse transcriptase (Human immunodeficiency virus type 1 group M subtype B); construct: made in house; assay: RNA-dependent DNA polymerase activity assay of HIV reverse transcriptase; assay type: biochemical, HIV-1; settings: 10 μM inhibitor concentration; activity with analog / without analog x 100; read-out: Residual activity (%) Polymerase
API: value field is a number in %; no unit string.

Known remaining activity at 10 µM results, listed for orientation:
CCc1c2c(nc3ccc(N)cc13)-c1cc(C(O)CC)c(C)c(=O)n1C2 (stereo not drawn) [AG 6M]; 76
CCc1c2c(nc3ccc(O)cc13)-c1cc(C(O)CC)c(C)c(=O)n1C2 (stereo not drawn) [AG 8M]; 69
CCC(O)c1cc2n(c(=O)c1C)Cc1c-2nc2ccc(N)cc2c1[Si](C)(C)C (stereo not drawn) [AG 3M]; 123
CCc1c2c(nc3ccc(NC(=O)OC(C)(C)C)cc13)-c1cc(C(O)CC)c(C)c(=O)n1C2 (stereo not drawn) [AG 5M]; 87
CCc1c2c(nc3ccc(OC(C)=O)cc13)-c1cc(C(O)CC)c(C)c(=O)n1C2 (stereo not drawn) [AG 7M]; 99

Reported remaining activity at 10 µM, compound CCC(O)c1cc2n(c(=O)c1C)Cc1c-2nc2ccc(NC(=O)OC(C)(C)C)cc2c1[Si](C)(C)C (stereo not drawn) [AG 2M] : ____
80

These data points were gathered from patent US20040058948A1.
